- target-of-assay: Full-length human MNK2 (Homo sapiens, UniProt Q9HBH9, T379D)
- Construct: GST (N); purchased Carna Biosciences 02-146; host or cells: baculovirus expression system
- Sequence (Q9HBH9 whole entry T379D): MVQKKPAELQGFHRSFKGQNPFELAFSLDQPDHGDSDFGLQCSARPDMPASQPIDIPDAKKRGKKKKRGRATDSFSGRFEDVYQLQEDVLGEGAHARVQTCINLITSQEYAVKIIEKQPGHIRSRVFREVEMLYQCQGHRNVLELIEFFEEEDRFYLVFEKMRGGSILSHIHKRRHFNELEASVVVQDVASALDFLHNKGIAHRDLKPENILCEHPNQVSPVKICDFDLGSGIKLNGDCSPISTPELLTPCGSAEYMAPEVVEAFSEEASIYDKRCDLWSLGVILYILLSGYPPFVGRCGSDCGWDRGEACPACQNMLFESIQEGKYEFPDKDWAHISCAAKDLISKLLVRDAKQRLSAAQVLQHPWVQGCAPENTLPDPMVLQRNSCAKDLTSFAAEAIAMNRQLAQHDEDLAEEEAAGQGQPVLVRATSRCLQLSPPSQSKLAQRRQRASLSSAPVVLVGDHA
- assay-method-text: MNK2 biochemical IC50 assay (Caliper Mobility Shift Assay)
- condition-notes: read-out: P(IC50) MNK2 (converted)
value-type: IC50 (nM)
Provide only the numeric value, understood in nM.

# input Given the compound O=C(NCC1CCNCC1)c1nc2c(N3CCc4cc(Br)ccc43)ncnc2s1 [Example 169] , what is its reported IC50?
# output 7.94

# input Given the compound O=C(NCCN1CCCC1)c1nc2c(N3CCc4cc(F)ccc43)ncnc2s1 [Example 74] , what is its reported IC50?
# output 5.01

# input Given the compound CC1(C)CN(c2ncnc3sc(C(=O)NC4CCNCC4)nc23)c2ccccc21 [Example 162] , what is its reported IC50?
# output 5.01

# input Given the compound O=C(NC1CCOCC1)c1nc2c(N3CC4(CC4)c4cc(F)ccc43)ncnc2s1 [Example 107] , what is its reported IC50?
# output 3.16

# input Given the compound O=C(NC1CCOCC1)c1nc2c(N3CC(CCN4CCCC4)c4ccccc43)ncnc2s1 (centres unmarked) [Example 153] , what is its reported IC50?
# output 50.1
